Biological target: dopamine D2 receptors (Rattus norvegicus, UniProt P61169)
Construct: Male Wistar (Mol:Wistar) rats (125-250 g) are sacrificed and striatal tissue is dissected and weighed; from tissue; host or cells: rat corpus striatum membranes (male Wistar rats)
Sequence (P61169 whole entry): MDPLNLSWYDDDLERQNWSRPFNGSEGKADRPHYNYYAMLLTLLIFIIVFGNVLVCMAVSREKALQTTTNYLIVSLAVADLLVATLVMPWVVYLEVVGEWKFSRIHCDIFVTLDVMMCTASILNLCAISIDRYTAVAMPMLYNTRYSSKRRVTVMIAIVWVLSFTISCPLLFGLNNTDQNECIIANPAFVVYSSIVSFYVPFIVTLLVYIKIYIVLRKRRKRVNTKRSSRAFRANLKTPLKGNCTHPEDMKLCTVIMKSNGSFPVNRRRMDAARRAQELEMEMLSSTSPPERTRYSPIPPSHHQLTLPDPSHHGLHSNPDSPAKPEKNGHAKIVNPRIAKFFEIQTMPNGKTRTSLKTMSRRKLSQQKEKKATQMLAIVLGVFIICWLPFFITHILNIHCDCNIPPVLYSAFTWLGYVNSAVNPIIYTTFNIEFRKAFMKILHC
Assay: Inhibition of 3H-spiperone binding to dopamine D2 receptors in rat corpus striatum in vitro
parameter: IC50 (nM)
Kindly answer with a numeric value in nM, unit omitted.

Per the records, this compound ( CN1CC=C(c2cn(-c3ccc(F)cc3)c3ccc(-c4nnn(C)n4)cc23)CC1 [Compound 21b] ) has IC50 equal to 14

----------
Target: dopamine D2 receptors (Rattus norvegicus)
Construct: Male Wistar (Mol:Wistar) rats (125-250 g) are sacrificed and striatal tissue is dissected and weighed; from tissue; host or cells: rat corpus striatum membranes (male Wistar rats)
Test: Inhibition of 3H-spiperone binding to dopamine D2 receptors in rat corpus striatum in vitro
Conditions: 3H-spiperone 0.5 nM, membranes from rat corpus striatum; read-out: IC50 values in nM, D2
Where a name gives a salt, the structure may show the parent alone.
parameter: IC50

Cn1nnc(Cc2ccc3c(c2)c(C2=CCN(CCN4CCNC4=O)CC2)cn3-c2ccc(F)cc2)n1 [Compound 22e] :: 8.6 nM
CCn1nnc(-c2ccc3c(c2)c(C2=CCN(CCN4CCNC4=O)CC2)cn3-c2ccc(F)cc2)n1 [Compound 22c] :: 110 nM
Cn1nnc(-c2ccc3c(c2)c(C2=CCN(CCc4nnnn4C)CC2)cn3-c2ccc(F)cc2)n1 [Compound 17b, fumarate] :: 97 nM

Entry Cn1nnnc1Cc1ccc2c(c1)c(C1CCN(CCN3CCNC3=O)CC1)cn2-c1ccc(F)cc1 [Compound 23c] : IC50 on dopamine D2 receptors (Rattus norvegicus) = 3.7 nM

Entry Cn1ncc(-c2ccc3c(c2)c(C2=CCN(CCN4CCNC4=O)CC2)cn3-c2ccc(F)cc2)n1 [Compound 22g] : IC50 on dopamine D2 receptors (Rattus norvegicus) = 28 nM

Entry Cn1nnc(-c2ccc3c(c2)c(C2=CCN(CCN4CCNC4=O)CC2)cn3-c2ccc(F)cc2)n1 [Compound 22a] : IC50 on dopamine D2 receptors (Rattus norvegicus) = 37 nM

Entry Cn1nnc(-c2ccc3c(c2)c(C2CCN(CCN4CCNC4=O)CC2)cn3-c2ccncc2)n1 [Compound 6a] : IC50 on dopamine D2 receptors (Rattus norvegicus) = > 100 nM

Entry Cn1nnnc1Cc1ccc2c(c1)c(C1=CCN(CCN3CCNC3=O)CC1)cn2-c1ccc(F)cc1 [Compound 22d] : IC50 on dopamine D2 receptors (Rattus norvegicus) = 5 nM

----------
Molecular target: α1-adrenoceptors
Experiment: Inhibition of 3H-prazosin binding to α1-adrenoceptors in rat brain in vitro
Details: 3H-prazosin 0.25 nM, membranes from rat brain
Where a name gives a salt, the structure may show the parent alone.
As shown below, each of these compounds has a reported IC50 value.
Kindly answer with a numeric value in nM, unit omitted.

COc1cc2nc(N3CCN(C(=O)c4ccco4)CC3)nc(N)c2cc1OC [Prazosin, prazosin, reference compound] :: 0.36

Per the records, this compound ( Cn1nnnc1Cc1ccc2c(c1)c(C1=CCN(CCN3CCNC3=O)CC1)cn2-c1ccc(F)cc1 [Compound 22d] ) has IC50 equal to 0.72

Per the records, this compound ( Cn1nnnc1Cc1ccc2c(c1)c(C1CCN(CCN3CCNC3=O)CC1)cn2-c1ccc(F)cc1 [Compound 23c] ) has IC50 equal to 0.5

Per the records, this compound ( Cn1nnnc1-c1ccc2c(c1)c(C1=CCN(CCN3CCNC3=O)CC1)cn2-c1ccc(F)cc1 [Compound 22b] ) has IC50 equal to 0.75

Per the records, this compound ( Cn1nnc(-c2ccc3c(c2)c(C2=CCN(CCc4nnnn4C)CC2)cn3-c2ccc(F)cc2)n1 [Compound 17b, fumarate] ) has IC50 equal to 4.9

Per the records, this compound ( CCn1nnc(-c2ccc3c(c2)c(C2CCN(CCN4CCNC4=O)CC2)cn3-c2ccc(F)cc2)n1.Cl.Cl [Compound 23a, dihydrochloride] ) has IC50 equal to 6.1

Per the records, this compound ( Cn1nnc(CCN2CC=C(c3cn(-c4ccc(F)cc4)c4ccc(-c5nnn(C)n5)cc34)CC2)n1 [Compound 17a] ) has IC50 equal to 4

Per the records, this compound ( Cn1nnc(-c2ccc3c(c2)c(C2CCN(CCN4CCNC4=O)CC2)cn3-c2ccncc2)n1 [Compound 6a] ) has IC50 equal to 18

Per the records, this compound ( Cn1nnc(Cc2ccc3c(c2)c(C2=CCN(CCN4CCNC4=O)CC2)cn3-c2ccc(F)cc2)n1 [Compound 22e] ) has IC50 equal to 1.5

Per the records, this compound ( O=C1NCCN1CCN1CCC(c2cn(-c3ccc(F)cc3)c3ccc(Cl)cc23)CC1 [Sertindole, sertindole, reference compound] ) has IC50 equal to 3.4

----------
Molecular target: serotonin S2 (5-HT2A) receptors (Rattus norvegicus, UniProt P14842)
Construct: Male Wistar (Mol:Wist) rats (125-250 g) are sacrificed and cortical tissue is dissected and weighed; from tissue; host or cells: rat cortex membranes (male Wistar rats)
Sequence (P14842 whole entry): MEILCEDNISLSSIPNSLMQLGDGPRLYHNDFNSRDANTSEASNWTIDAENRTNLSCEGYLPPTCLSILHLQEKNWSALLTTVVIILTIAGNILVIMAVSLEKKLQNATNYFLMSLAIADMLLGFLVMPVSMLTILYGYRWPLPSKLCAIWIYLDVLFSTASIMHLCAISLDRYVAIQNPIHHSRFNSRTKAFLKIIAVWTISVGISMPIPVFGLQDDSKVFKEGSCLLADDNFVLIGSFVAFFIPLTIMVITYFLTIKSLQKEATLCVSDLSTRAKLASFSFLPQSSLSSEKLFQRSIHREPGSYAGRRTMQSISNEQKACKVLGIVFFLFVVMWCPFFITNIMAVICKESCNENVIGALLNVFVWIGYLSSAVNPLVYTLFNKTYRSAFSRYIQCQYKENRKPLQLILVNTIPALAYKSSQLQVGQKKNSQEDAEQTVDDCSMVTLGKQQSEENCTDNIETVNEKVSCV
Assay: Inhibition of 3H-ketanserin binding to serotonin S2 (5-HT2A) receptors in rat cortex in vitro
Settings: 3H-ketanserin 0.5 nM, membranes from rat cortex; read-out: IC50 values in nM, 5-HT2A
parameter: IC50 (nM)
Kindly answer with a numeric value in nM, unit omitted.

Consider the reported IC50 for these compounds:
Cn1nnnc1-c1ccc2c(c1)c(C1=CCN(CCN3CCNC3=O)CC1)cn2-c1ccc(F)cc1 [Compound 22b] :: 38
CCn1nnc(-c2ccc3c(c2)c(C2CCN(CCN4CCNC4=O)CC2)cn3-c2ccc(F)cc2)n1.Cl.Cl [Compound 23a, dihydrochloride] :: 53

Attention now shifts to the item below.
Per the records, this compound ( Cn1nnnc1Cc1ccc2c(c1)c(C1CCN(CCN3CCNC3=O)CC1)cn2-c1ccc(F)cc1 [Compound 23c] ) has IC50 equal to 8.3

----------
Target: serotonin S2 (5-HT2A) receptors (Rattus norvegicus, UniProt P14842)
Construct: Male Wistar (Mol:Wist) rats (125-250 g) are sacrificed and cortical tissue is dissected and weighed; from tissue; host or cells: rat cortex membranes (male Wistar rats)
Test: Inhibition of 3H-ketanserin binding to serotonin S2 (5-HT2A) receptors in rat cortex in vitro
parameter: IC50

Per the records, this compound ( CN1CC=C(c2cn(-c3ccc(F)cc3)c3ccc(-c4nnn(C)n4)cc23)CC1 [Compound 21b] ) has IC50 equal to > 100 nM

----------
As shown below, each of these compounds has a reported melting point value.

CCn1nnc(-c2ccc3c(c2)c(C2=CCN(CCN4CCNC4=O)CC2)cn3-c2ccc(F)cc2)n1 [Compound 22c] :: 179 to 181 °C
Cn1nnnc1-c1ccc2c(c1)c(C1=CCN(CCN3CCNC3=O)CC1)cn2-c1ccc(F)cc1 [Compound 22b] :: 198 to 200 °C
Cn1nnnc1Cc1ccc2c(c1)c(C1=CCN(CCN3CCNC3=O)CC1)cn2-c1ccc(F)cc1 [Compound 22d] :: 174 to 176 °C

Attention now shifts to the item below.
Per the records, this compound ( CCn1ncc(-c2ccc3c(c2)c(C2=CCN(CCN4CCNC4=O)CC2)cn3-c2ccc(F)cc2)n1 [Compound 22i] ) has melting point equal to 143 to 145 °C

----------
As shown below, each of these compounds has a reported IC50 value.
Molecular target: dopamine D2 receptors (Rattus norvegicus)
Construct: Male Wistar (Mol:Wistar) rats (125-250 g) are sacrificed and striatal tissue is dissected and weighed; from tissue; host or cells: rat corpus striatum membranes (male Wistar rats)
Assay: Inhibition of 3H-spiperone binding to dopamine D2 receptors in rat corpus striatum in vitro
Conditions: 3H-spiperone 0.5 nM, membranes from rat corpus striatum; read-out: IC50 values in nM, D2
Kindly answer with a numeric value in nM, unit omitted.

Consider the reported IC50 for these compounds:
Cn1nnnc1-c1ccc2c(c1)c(C1=CCN(CCN3CCNC3=O)CC1)cn2-c1ccc(F)cc1 [Compound 22b] :: 4.7
Cn1nnc(CCN2CC=C(c3cn(-c4ccc(F)cc4)c4ccc(-c5nnn(C)n5)cc34)CC2)n1 [Compound 17a] :: 20

Attention now shifts to the item below.
Per the records, this compound ( COc1cc2nc(N3CCN(C(=O)c4ccco4)CC3)nc(N)c2cc1OC [Prazosin, prazosin, reference compound] ) has IC50 equal to 11000

----------
As shown below, each of these compounds has a reported IC50 value.
Molecular target: serotonin S2 (5-HT2A) receptors (Rattus norvegicus, UniProt P14842)
Construct: Male Wistar (Mol:Wist) rats (125-250 g) are sacrificed and cortical tissue is dissected and weighed; from tissue; host or cells: rat cortex membranes (male Wistar rats)
Assay: Inhibition of 3H-ketanserin binding to serotonin S2 (5-HT2A) receptors in rat cortex in vitro
Conditions: 3H-ketanserin 0.5 nM, membranes from rat cortex; read-out: IC50 values in nM, 5-HT2A
Kindly answer with a numeric value in nM, unit omitted.

Consider the reported IC50 for these compounds:
Cn1nnc(Cc2ccc3c(c2)c(C2=CCN(CCN4CCNC4=O)CC2)cn3-c2ccc(F)cc2)n1 [Compound 22e] :: 5
Cn1nnc(CCN2CC=C(c3cn(-c4ccc(F)cc4)c4ccc(-c5nnn(C)n5)cc34)CC2)n1 [Compound 17a] :: 70
CCn1ncc(-c2ccc3c(c2)c(C2=CCN(CCN4CCNC4=O)CC2)cn3-c2ccc(F)cc2)n1 [Compound 22i] :: 22

Per the records, this compound ( Cn1nnc(-c2ccc3c(c2)c(C2=CCN(CCN4CCNC4=O)CC2)cn3-c2ccc(F)cc2)n1 [Compound 22a] ) has IC50 equal to 210

Values were extracted from patent US6602889B1.
